// data source = patent US12157730B2

System: scanMAX kinase panel (EGFR mutant, ERBB2, ERBB4)
assay.overview: DiscoverX (eurofin) KINOMEscan (scanMAX platform) kinase profiling
Format: binding
condition.label: EGFR(E746-A750del)
Provide the reported % inhibition of scanMAX Kinase profiling of each item.
Record the value in %, omitting the unit from your answer.

Incoming: Using the record for C=CC(=O)Nc1cc(Nc2cc(N3OCC[C@@H]3c3cc(F)cc(F)c3)ncn2)c(OC)cc1N1CCC(N2C[C@H]3C[C@@H]2CO3)CC1 [Example 238] , state its measured % inhibition of scanMAX Kinase profiling.
Outgoing: 100

Incoming: Using the record for C=CC(=O)Nc1cc(Nc2cc(N3OCC[C@@H]3c3ccccc3)ncn2)c(OC)cc1N1CCN(C)CC1 [Example 6] , state its measured % inhibition of scanMAX Kinase profiling.
Outgoing: 100

Incoming: Using the record for C=CC(=O)Nc1cc(Nc2cc(N3OCC[C@@H]3c3ccccc3)ncn2)c(OC)cc1N1CCC(N2CCN(C)CC2)CC1 [Example 9] , state its measured % inhibition of scanMAX Kinase profiling.
Outgoing: 100

Incoming: Using the record for C=CC(=O)Nc1cc(Nc2cc(N3OCC[C@@H]3c3cc(F)cc(F)c3)ncn2)c(OC)cc1N1CCC(N2CCOCC2)CC1 [Example 30] , state its measured % inhibition of scanMAX Kinase profiling.
Outgoing: 95

Incoming: Using the record for C=CC(=O)Nc1cc(Nc2cc(N3OCC[C@@H]3c3ccccc3)ncn2)c(OC)cc1N(C)CCN(C)C [Example 4] , state its measured % inhibition of scanMAX Kinase profiling.
Outgoing: 100

Incoming: Using the record for C=CC(=O)Nc1cc(Nc2cc(N3OCC[C@@H]3c3cc(F)cc(F)c3)ncn2)c(OC)cc1N1CCC(N2CCN(CC)CC2)CC1 [Example 236] , state its measured % inhibition of scanMAX Kinase profiling.
Outgoing: 89

Incoming: Using the record for C=CC(=O)Nc1cc(Nc2cc(N3OCC[C@@H]3c3cc(F)cc(F)c3)ncn2)c(OC)cc1N1CCC(N2CCN(C3CC3)CC2)CC1 [Example 57] , state its measured % inhibition of scanMAX Kinase profiling.
Outgoing: 98

Incoming: Using the record for C=CC(=O)Nc1cc(Nc2cc(N3OCC[C@@H]3c3cc(F)cc(F)c3)ncn2)c(OC)cc1N1CCC(N2C[C@@H]3C[C@H]2CO3)CC1 [Example 239] , state its measured % inhibition of scanMAX Kinase profiling.
Outgoing: 96

###

Provide the reported GI50 of each item.
assayed.system: Ba/F3 cell EGFR L858R/T790M (Homo sapiens, UniProt P00533, L858R/T790M)
Construct: expressed in transfected cells; host or cells: Ba/F3
Sequence (P00533 25-1210 T790M/L858R): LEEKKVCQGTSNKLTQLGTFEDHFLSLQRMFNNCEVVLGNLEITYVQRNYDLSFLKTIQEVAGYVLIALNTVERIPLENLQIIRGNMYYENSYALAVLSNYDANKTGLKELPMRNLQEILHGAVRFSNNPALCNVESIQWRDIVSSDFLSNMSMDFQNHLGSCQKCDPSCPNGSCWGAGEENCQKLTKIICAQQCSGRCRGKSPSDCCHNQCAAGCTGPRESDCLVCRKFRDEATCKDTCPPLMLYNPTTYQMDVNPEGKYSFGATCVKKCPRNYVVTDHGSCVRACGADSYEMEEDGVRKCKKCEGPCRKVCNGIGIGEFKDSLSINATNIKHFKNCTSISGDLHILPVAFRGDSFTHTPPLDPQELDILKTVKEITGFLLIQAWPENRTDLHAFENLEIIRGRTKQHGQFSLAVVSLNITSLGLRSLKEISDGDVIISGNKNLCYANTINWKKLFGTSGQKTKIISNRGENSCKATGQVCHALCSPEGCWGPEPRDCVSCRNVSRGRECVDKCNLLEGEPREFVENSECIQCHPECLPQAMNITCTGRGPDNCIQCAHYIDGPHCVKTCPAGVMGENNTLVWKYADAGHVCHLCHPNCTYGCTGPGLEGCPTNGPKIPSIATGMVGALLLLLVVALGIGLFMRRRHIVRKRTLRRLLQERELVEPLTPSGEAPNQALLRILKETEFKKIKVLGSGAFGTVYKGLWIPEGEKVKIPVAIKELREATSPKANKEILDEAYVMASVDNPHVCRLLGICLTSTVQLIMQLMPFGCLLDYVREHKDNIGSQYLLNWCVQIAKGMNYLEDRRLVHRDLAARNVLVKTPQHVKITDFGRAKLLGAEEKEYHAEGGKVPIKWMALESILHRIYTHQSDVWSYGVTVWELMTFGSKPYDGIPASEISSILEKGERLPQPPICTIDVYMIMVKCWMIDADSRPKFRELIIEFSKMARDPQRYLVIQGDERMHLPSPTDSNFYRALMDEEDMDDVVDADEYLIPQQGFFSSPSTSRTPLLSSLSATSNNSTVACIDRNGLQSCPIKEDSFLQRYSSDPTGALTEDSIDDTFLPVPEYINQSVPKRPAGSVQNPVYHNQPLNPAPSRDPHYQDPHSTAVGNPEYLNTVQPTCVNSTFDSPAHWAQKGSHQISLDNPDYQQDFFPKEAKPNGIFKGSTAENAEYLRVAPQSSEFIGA
assay.overview: Ba/F3 cell proliferation suppression, EGFR L858R/T790M
Type: cell-based
condition.label: 72 hours after treatment, CellTiter-Glo

Incoming: Using the record for `C=CC(=O)Nc1cc(Nc2cc(N3OCC[C@@H]3c3ccccc3)ncn2)c(OC)cc1OCCN(C)C` , state its measured GI50.
Outgoing: 0.05 to 0.5 µM

Incoming: Using the record for `C=CC(=O)Nc1cc(Nc2cc(N3OCC[C@@H]3c3cc(F)cc(F)c3)ncn2)c(OC)cc1N1CC[C@@H](N(C)C)C1` , state its measured GI50.
Outgoing: < 0.05 µM

Incoming: Using the record for `C=CC(=O)Nc1cc(Nc2cc(N3OCC[C@@H]3c3cc(F)cc(F)c3)ncn2)c(OC)cc1N1CCC(N2CC[C@@H](N(C)C)C2)CC1` , state its measured GI50.
Outgoing: < 0.05 µM

Incoming: Using the record for `C=CC(=O)Nc1cc(Nc2cc(N3OCC[C@@H]3c3ccccc3)ncn2)c(OC)cc1N1CCN(C2CC2)CC1` , state its measured GI50.
Outgoing: 0.05 to 0.5 µM

Incoming: Using the record for `C=CC(=O)Nc1cc(Nc2cc(N3OCC[C@@H]3c3ccccc3)ncn2)c(OC)cc1N1CCN(C2CCN(C)CC2)CC1` , state its measured GI50.
Outgoing: < 0.05 µM

Incoming: Using the record for `C=CC(=O)Nc1cc(Nc2cc(N3OCC[C@@H]3c3cc(F)cc(F)c3)ncn2)c(OC)cc1N1CCC(N2CCN(C3CC3)CC2)CC1` , state its measured GI50.
Outgoing: < 0.05 µM

Incoming: Using the record for `C=CC(=O)Nc1cc(Nc2cc(N3OCC[C@@H]3c3ccccc3)ncn2)c(OC)cc1N1CCN(C)CC1` , state its measured GI50.
Outgoing: < 0.05 µM
